Test system: SUM-159-PT
Experiment: Anticancer activity against human SUM159 cells assessed as decrease in primary tumor sphere formation incubated for 72 hrs by Extreme limiting dilution analysis
Type: functional, cell-based
The source made the active and inactive calls. No cut-off for these calls is given here.
Outcomes: active, inactive

>>> assignedcategory("CCCc1cc(C)[nH]c(=O)c1CNC(=O)c1cc(-c2ccnc(N3CCN(C)CC3)c2)cc2c1cnn2C(C)C")
"inactive"
>>> assignedcategory("CC[C@@H](C(=O)[C@@H](C)[C@@H](O)[C@H](C)[C@@H]1O[C@@H]([C@@H](CC)C(=O)O)CC[C@@H]1C)[C@H]1O[C@]2(C=C[C@@H](O)[C@]3(CC[C@@](C)([C@H]4CC[C@](O)(CC)[C@H](C)O4)O3)O2)[C@H](C)C[C@@H]1C")
"active"
>>> assignedcategory("Cc1sc2c(c1C)C(c1ccc(Cl)cc1)=N[C@@H](CC(=O)OC(C)(C)C)c1nnc(C)n1-2")
"active"
>>> assignedcategory("CC#C[C@]1(O)CC[C@H]2[C@@H]3CCC4=CC(=O)CCC4=C3[C@@H](c3ccc(N(C)C)cc3)C[C@@]21C")
"active"
